Where do the numbers come from? From patent US20090023704A1.

- assayTarget: GABAB receptor (GABABR1a/GABABR2 heterodimer) (Homo sapiens, UniProt O75899+Q9UBS5)
- Construct: expressed in transfected cells
- Sequence (Q9UBS5 15-961 limits assumed): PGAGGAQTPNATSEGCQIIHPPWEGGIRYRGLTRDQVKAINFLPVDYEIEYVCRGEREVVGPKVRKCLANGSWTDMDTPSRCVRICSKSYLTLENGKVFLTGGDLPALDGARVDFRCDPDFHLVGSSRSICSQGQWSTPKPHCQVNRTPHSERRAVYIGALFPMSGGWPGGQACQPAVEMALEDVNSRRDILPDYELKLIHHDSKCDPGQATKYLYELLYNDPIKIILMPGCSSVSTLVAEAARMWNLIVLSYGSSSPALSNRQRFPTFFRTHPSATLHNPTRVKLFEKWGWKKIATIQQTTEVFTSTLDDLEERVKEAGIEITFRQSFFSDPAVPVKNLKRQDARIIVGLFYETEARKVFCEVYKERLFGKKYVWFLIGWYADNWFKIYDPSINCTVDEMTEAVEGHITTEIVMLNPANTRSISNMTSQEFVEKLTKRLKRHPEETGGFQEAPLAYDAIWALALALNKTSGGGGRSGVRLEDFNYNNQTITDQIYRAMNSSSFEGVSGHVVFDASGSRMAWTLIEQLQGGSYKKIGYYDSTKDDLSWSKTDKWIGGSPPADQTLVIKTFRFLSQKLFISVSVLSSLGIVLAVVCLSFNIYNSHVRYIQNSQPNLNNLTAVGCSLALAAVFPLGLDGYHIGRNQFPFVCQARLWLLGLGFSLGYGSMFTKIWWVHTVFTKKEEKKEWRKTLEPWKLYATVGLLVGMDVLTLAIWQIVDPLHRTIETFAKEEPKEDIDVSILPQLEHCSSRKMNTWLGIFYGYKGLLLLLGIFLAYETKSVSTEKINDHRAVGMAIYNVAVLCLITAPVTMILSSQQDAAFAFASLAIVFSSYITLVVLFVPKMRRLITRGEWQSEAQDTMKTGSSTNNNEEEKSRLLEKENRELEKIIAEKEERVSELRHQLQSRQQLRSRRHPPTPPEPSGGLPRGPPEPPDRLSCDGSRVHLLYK
- Sequence (O75899 42-941): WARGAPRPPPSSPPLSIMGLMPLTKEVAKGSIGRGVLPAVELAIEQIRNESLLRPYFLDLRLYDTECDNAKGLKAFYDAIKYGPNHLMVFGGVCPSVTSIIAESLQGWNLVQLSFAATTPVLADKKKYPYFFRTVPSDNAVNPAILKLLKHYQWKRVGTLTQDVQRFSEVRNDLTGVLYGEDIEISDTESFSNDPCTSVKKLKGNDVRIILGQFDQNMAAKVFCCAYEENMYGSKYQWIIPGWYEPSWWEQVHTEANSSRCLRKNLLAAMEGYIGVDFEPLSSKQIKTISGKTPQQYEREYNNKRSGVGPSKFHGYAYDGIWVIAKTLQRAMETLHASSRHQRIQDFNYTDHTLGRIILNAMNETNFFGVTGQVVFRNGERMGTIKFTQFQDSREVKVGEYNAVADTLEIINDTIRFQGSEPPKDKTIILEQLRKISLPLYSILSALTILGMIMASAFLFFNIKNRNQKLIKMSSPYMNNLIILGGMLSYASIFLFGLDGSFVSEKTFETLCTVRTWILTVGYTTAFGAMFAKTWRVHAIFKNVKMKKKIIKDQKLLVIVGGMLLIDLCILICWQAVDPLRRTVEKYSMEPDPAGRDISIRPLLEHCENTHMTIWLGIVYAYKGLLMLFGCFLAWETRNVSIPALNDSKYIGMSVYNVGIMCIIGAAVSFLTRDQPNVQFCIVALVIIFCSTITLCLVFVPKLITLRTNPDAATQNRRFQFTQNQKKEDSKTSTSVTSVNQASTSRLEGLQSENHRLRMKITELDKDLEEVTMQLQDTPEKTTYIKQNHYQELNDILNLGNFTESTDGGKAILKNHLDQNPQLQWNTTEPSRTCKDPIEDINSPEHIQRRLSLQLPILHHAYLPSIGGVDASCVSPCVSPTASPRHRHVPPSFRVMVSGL
- assayComment: [35S]-GTPγS binding assay, potency of PAM (GABA dose-response curves with and without test compound)
- Format: biochemical
- conditionContext: potency of the positive allosteric modulator; GABA dose-response in presence of test compound
pEC50: −log10 of the molar value.
Measured pEC50 by item
resultType: pEC50

>>> val("CCc1nc2c(c(=O)n(Cc3ccc(Cl)cc3)c(=O)n2CCCS(=O)(=O)C(C)(C)C)n1C")
4.95
>>> val("CCc1nc2c(c(=O)n(Cc3ccc(Cl)c(Cl)c3)c(=O)n2CC(=O)C(C)(C)C)n1C")
6.22
>>> val("CCc1nc2c(c(=O)n(Cc3ccc(Cl)cc3)c(=O)n2CCn2cccc2)n1C")
5.77
>>> val("CCc1nc2c(c(=O)n(Cc3ccc(Cl)cc3)c(=O)n2CC(O)C(F)(F)F)n1C (stereo not shown)")
5.68

====

- assayTarget: GABAB receptor (GABABR1a/GABABR2 heterodimer) (Homo sapiens, UniProt O75899+Q9UBS5)
- assayComment: [35S]-GTPγS binding assay, potency of PAM (GABA dose-response curves with and without test compound)
- conditionContext: potency of the positive allosteric modulator; GABA dose-response in presence of test compound
Simple rule here: EC50 less than 4 µM is T, otherwise F.

>>> classification("CCCn1c(=O)n(Cc2ccc(Cl)cc2)c(=O)c2c1nc(N1CCCCC1)n2C")
"T"
>>> classification("CCCn1c(=O)n(Cc2ccc(Cl)cc2)c(=O)c2c1nc(N1CCOCC1)n2C")
"F"
>>> classification("CCCn1c(=O)n(Cc2ccc(OCc3ccccc3)cc2)c(=O)c2c1nc(CC)n2C")
"F"
>>> classification("CCc1nc2c(c(=O)n(Cc3ccc(Cl)cc3)c(=O)n2Cc2ccc(-n3cccn3)cc2)n1C")
"T"
>>> classification("CCc1nc2c(c(=O)n(Cc3ccc(Cl)cc3)c(=O)n2Cc2ccccn2)n1C")
"F"
>>> classification("CCc1nc2c(c(=O)n(Cc3ccc(Cl)cc3)c(=O)n2CC(=O)C(C)(C)C)n1C")
"T"
>>> classification("CCCn1c(=O)n(Cc2ccc(Cl)c(Cl)c2)c(=O)c2c1nc(CC)n2C")
"T"
>>> classification("CCc1nc2c(c(=O)n(Cc3ccc(Cl)cc3)c(=O)n2CCOC)n1C")
"F"
>>> classification("CCCn1c(=O)n(Cc2cccc(Cl)c2)c(=O)c2c1nc(CC)n2C")
"F"
>>> classification("CCCn1c(=O)n(Cc2ccc(Cl)cc2)c(=O)c2c1nc(N(C)C)n2C")
"F"
>>> classification("CCCn1c(=O)n(Cc2ccc(C(C)C)cc2)c(=O)c2c1nc(CC)n2C")
"F"
>>> classification("CCCn1c(=O)n(Cc2ccc(Cl)cc2)c(=O)c2c1nc(N1CCN(C)CC1)n2C")
"F"
>>> classification("CCc1nc2c(c(=O)n(Cc3ccc(Cl)cc3)c(=O)n2CC(=O)c2ccccc2)n1C")
"T"
>>> classification("CCCn1c(=O)n(Cc2ccc(Cl)cc2)c(=O)c2c1nc(N1CCC[C@H]1CN1CCCC1)n2C")
"F"
>>> classification("CCCn1c(=O)n(CCc2ccc(Cl)cc2)c(=O)c2c1nc(CC)n2C")
"F"
>>> classification("CCCn1c(=O)n(Cc2ccc(Cl)cc2)c(=O)c2c1nc(N1CCSCC1)n2C")
"T"
>>> classification("CCc1nc2c(c(=O)n(Cc3ccc(Cl)c(Cl)c3)c(=O)n2CCCCC2CCCCC2)n1C")
"F"
>>> classification("CCCn1c(=O)n(Cc2ccc(Cl)cc2)c(=O)c2c1nc(N1CCC1)n2C")
"F"
>>> classification("CCc1nc2c(c(=O)n(Cc3ccc(Cl)cc3)c(=O)n2CC(=O)N(C(C)C)C(C)C)n1C")
"F"
>>> classification("CCc1nc2c(c(=O)n(Cc3ccc(Cl)cc3)c(=O)n2Cc2ccc(C(F)(F)F)cc2)n1C")
"F"
>>> classification("CCCn1c(=O)n(Cc2ccc(Cl)cc2)c(=O)c2c1nc(CC)n2CC")
"F"
>>> classification("C=CCn1c(=O)n(Cc2ccc(Cl)cc2)c(=O)c2c1nc(CC)n2C")
"F"
>>> classification("CCc1nc2c(c(=O)n(Cc3ccc(Cl)c(Cl)c3)c(=O)n2CC[Si](C)(C)C)n1C")
"T"
>>> classification("CCc1nc2c(c(=O)n(Cc3ccc(Cl)cc3)c(=O)n2Cc2ccc(SC(F)(F)F)cc2)n1C")
"F"
>>> classification("CCCn1c(=O)n(Cc2ccc(Cl)cc2)c(=O)c2c1nc(N1CCCC1)n2C")
"T"
>>> classification("CCc1nc2c(c(=O)n(Cc3ccc(Cl)c(Cl)c3)c(=O)n2CCC(C)(C)C)n1C")
"T"
>>> classification("CCCn1c(=O)n(Cc2ccc(Cl)cc2)c(=O)c2c1nc(CC)n2-c1ccc(F)cc1")
"F"
>>> classification("CCc1nc2c(c(=O)n(Cc3ccc(Cl)cc3)c(=O)n2CCC(C)(C)C)n1C")
"T"
>>> classification("COc1nc2c(c(=O)n(Cc3ccc(Cl)cc3)c(=O)n2CCCC(F)(F)F)n1C")
"F"
>>> classification("CCCn1c(=O)n(Cc2ccc(Cl)cc2)c(=O)c2c1nc(OC)n2C")
"F"
>>> classification("CCc1nc2c(c(=O)n(Cc3ccc(Cl)cc3)c(=O)n2CCCN2CCN(c3ccccc3)CC2)n1C")
"F"
>>> classification("CCc1nc2c(c(=O)n(Cc3ccc(Cl)cc3)c(=O)n2Cc2ccc(Cl)cc2)n1C")
"F"
>>> classification("CCc1nc2c(c(=O)n(Cc3ccc(Cl)cc3)c(=O)n2CCN(CC)CC)n1C")
"F"
>>> classification("CCc1nc2c(c(=O)n(Cc3ccc(Cl)cc3)c(=O)n2CCCn2ccnc2)n1C")
"F"

====

Measured EC50 by item
- assayTarget: GABAB receptor (GABABR1a/GABABR2 heterodimer) (Homo sapiens, UniProt O75899+Q9UBS5)
- assayComment: [35S]-GTPγS binding assay, potency of PAM (GABA dose-response curves with and without test compound)
- conditionContext: potency of the positive allosteric modulator; GABA dose-response in presence of test compound
resultType: EC50

>>> val("CCCn1c(=O)n(Cc2ccc(Cl)cc2)c(=O)c2c1nc(N(C)CCOC)n2C")
"8.3 µM"
>>> val("CCCn1c(=O)n(Cc2cnn(-c3ccc(Cl)cc3)c2C(F)(F)F)c(=O)c2c1nc(CC)n2C")
"5.9 µM"
>>> val("CCc1nc2c(c(=O)n(Cc3ccc(Cl)cc3)c(=O)n2CC(=O)OC(C)(C)C)n1C")
"5.6 µM"
>>> val("CCc1nc2c(c(=O)n(Cc3ccc(Cl)cc3)c(=O)n2CC(=O)c2ccncc2)n1C")
"7.9 µM"
>>> val("COc1nc2c(c(=O)n(Cc3ccc(Cl)cc3)c(=O)n2CCC(F)(F)F)n1C")
"5.2 µM"
>>> val("CCc1nc2c(c(=O)n(Cc3ccc(Cl)cc3)c(=O)n2Cc2scc(S(=O)(=O)C(C)C)c2Cl)n1C")
"1.8 µM"
>>> val("CCc1nc2c(c(=O)n(Cc3ccc(Cl)cc3)c(=O)n2Cc2c(-c3ccccc3)noc2C)n1C")
"4.6 µM"
>>> val("CCc1nc2c(c(=O)n(Cc3ccc(Cl)c(Cl)c3)c(=O)n2CC(=O)[C@]23C[C@@H]4C[C@H](C[C@@H](C4)C2)C3)n1C")
"11.3 µM"
>>> val("CCCn1c(=O)n(Cc2ccc(C(F)(F)F)cc2)c(=O)c2c1nc(CC)n2C")
"5.7 µM"
>>> val("CCCn1c(=O)n(Cc2ccc(Br)cc2)c(=O)c2c1nc(CC)n2C")
"4.2 µM"
>>> val("CCc1nc2c(c(=O)n(Cc3ccc(Cl)cc3)c(=O)n2CCCOC(C)(C)C)n1C")
"7.2 µM"
>>> val("CCCn1c(=O)n(Cc2ccc(F)cc2)c(=O)c2c1nc(OC)n2C")
"14.5 µM"
>>> val("CCc1nc2c(c(=O)n(Cc3ccc(Cl)cc3)c(=O)n2CCCN2CCCC2)n1C")
"16.9 µM"
>>> val("CCCn1c(=O)n(Cc2ccc(Cl)cc2)c(=O)c2c1nc(CC)n2C")
"5.89 µM"
>>> val("CCc1nc2c(c(=O)n(Cc3ccc(Cl)cc3)c(=O)n2CC(C)C)n1C")
"2.7 µM"
>>> val("CCCn1c(=O)n(Cc2ccc(Cl)cc2)c(=O)c2c1nc(N(CC)CC)n2C")
"1.8 µM"
>>> val("CCc1nc2c(c(=O)n(Cc3ccc(Cl)cc3)c(=O)n2CC2OCCO2)n1C")
"12.3 µM"
>>> val("CCc1nc2c(c(=O)n(Cc3ccc(Cl)cc3)c(=O)n2CCCO)n1C")
"6.8 µM"
>>> val("CCc1nc2c(c(=O)n(Cc3ccc(Cl)cc3)c(=O)n2CC(OC)OC)n1C")
"8.8 µM"
>>> val("CCc1nc2c(c(=O)n(Cc3ccc(Cl)cc3)c(=O)n2Cc2ccccc2)n1C")
"6.33 µM"
>>> val("CCc1nc2c(c(=O)n(Cc3ccc(Cl)cc3)c(=O)n2C[C@H]2CCC(=O)N2)n1C")
"16.4 µM"
>>> val("CCc1nc2c(c(=O)n(Cc3ccc(Cl)cc3)c(=O)n2C[Si](C)(C)C)n1C")
"2.1 µM"
>>> val("CCc1nc2c(c(=O)n(Cc3ccc(Cl)cc3)c(=O)n2Cc2ccc(OC(F)F)cc2)n1C")
"3.7 µM"
>>> val("CCCn1c(=O)n(Cc2ccc(Cl)cc2)c(=O)c2c1nc(N1CCC[C@H]1COC)n2C")
"7.2 µM"
>>> val("CCCn1c(=O)n(Cc2ccc3nsnc3c2)c(=O)c2c1nc(CC)n2C")
"11.1 µM"
>>> val("CCc1nc2c(c(=O)n(Cc3ccc(Cl)cc3)c(=O)n2Cc2cc(C)on2)n1C")
"6.8 µM"
>>> val("CCc1nc2c(c(=O)n(Cc3ccc(Cl)cc3)c(=O)n2CC2CCCCC2)n1C")
"3 µM"
